Molecular target: T1, NHERF3_3, Q5T2W1
T1 sequence (Q5T2W1 238-333, limits assumed, looked up): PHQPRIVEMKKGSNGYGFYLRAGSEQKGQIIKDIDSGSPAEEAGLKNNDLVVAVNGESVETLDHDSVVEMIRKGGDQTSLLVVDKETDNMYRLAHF
Assay: holdup assay
Parameters: key: below the threshold = too weak to quantify, mostly under pKd 3.1 to 4
Details: plain residues with an end cap or a label only (N-terminal biotin on a linker: ado-ado)
Assay Metric: pKd

> print(dat)
                          binder             observed
 1    SSSVNVSSNL [CXCR1, P25024]  below the threshold
 2   KIEDVEITLV [FCHSD2, O94868]  below the threshold
 3     SGDGKTSVWI [GJC1, P36383]  below the threshold
 4    GQNMTVSVVI [PRLHR, P49683]                 4.02
 5     VCMGDHWFDV [PRKN, O60260]  below the threshold
 6    GNDPDRGTSI [GRID2, O43424]  below the threshold
 7    GVHSNDHSVV [LPAR1, Q92633]  below the threshold
 8  GTMFLRETSL [GUCY1A2, P33402]  below the threshold
 9     KPDKQEEFYA [SDC3, O75056]  below the threshold
10    PALKNGQYWV [CSPG4, Q6UVK1]  below the threshold
11    PDSYHRRDFW [U2AF2, P26368]  below the threshold
12   PLPPEEESWV [GAS2L2, Q8NHY3]  below the threshold
13    LVEEEEPMNL [HDAC7, Q8WUI4]  below the threshold
14   HLSTRQGTCV [ATRNL1, Q5VV63]  below the threshold
15   DLLGGGSDSI [TNRC6B, Q9UPQ9]  below the threshold
16   QKASRNESTF [POLR1D, P0DPB6]  below the threshold
17   EPAKETTTNV [SLC2A3, P11169]  below the threshold
18  WAKEKQHTRL [SLC17A1, Q14916]                 4.28
19     EFKQTSSFLV [JAM1, Q9Y624]  below the threshold
20    NKSEPFLTWL [WWTR1, Q9GZV5]                 4.12
21    ATKDKKITTV [EXOC4, Q96A65]  below the threshold
22    TKDKVQETQI [LRRC4, Q9HBW1]  below the threshold
23    QQGLLPHSSC [TYRO3, Q06418]  below the threshold
24    RSPVATATSC [DUSP5, Q16690]  below the threshold
25  VYEVPVETKF [SLC26A3, P40879]                 4.16

All figures here come from paper PMC9482650.
